- tested_system: human PAD4 (hPAD4) (Homo sapiens (Human))
- Sequence (Q9UM07 whole entry): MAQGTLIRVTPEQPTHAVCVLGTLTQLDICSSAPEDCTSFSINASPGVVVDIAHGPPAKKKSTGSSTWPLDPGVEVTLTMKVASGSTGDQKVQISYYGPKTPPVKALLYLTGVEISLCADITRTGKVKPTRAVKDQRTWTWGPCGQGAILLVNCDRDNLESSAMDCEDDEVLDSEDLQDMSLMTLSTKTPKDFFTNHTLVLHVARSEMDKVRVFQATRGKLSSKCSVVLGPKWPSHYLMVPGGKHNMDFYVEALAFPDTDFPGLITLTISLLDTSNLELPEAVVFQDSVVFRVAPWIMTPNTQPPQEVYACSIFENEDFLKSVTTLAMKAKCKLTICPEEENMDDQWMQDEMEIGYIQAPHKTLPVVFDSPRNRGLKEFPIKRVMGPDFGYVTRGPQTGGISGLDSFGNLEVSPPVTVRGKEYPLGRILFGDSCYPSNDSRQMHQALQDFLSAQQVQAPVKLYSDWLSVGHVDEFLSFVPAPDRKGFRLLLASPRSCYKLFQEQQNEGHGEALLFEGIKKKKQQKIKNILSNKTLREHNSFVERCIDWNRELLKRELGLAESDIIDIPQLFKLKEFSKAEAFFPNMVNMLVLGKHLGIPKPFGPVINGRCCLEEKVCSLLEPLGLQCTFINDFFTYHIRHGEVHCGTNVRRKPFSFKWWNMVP
- assay_explanation: RFMS Human PAD4 Functional Assay 1
- conditions_used: RFMS assay 1; 5 nM hPAD4, 250 μM BAEE substrate, 50 μM calcium, 37° C.
Here, each record is paired with measured log10 IC50 data.
log10 IC50, nM

Would you please look over these solved cases?
In: Recall the recorded log10 IC50 for `Cc1c(-c2cc3cccc(OCCn4cc(N)cn4)c3n2CC2CC2)nn2cc(C(=O)N3C[C@H](N)C[C@@H](F)C3)ccc12` with human PAD4 (hPAD4) (Homo sapiens (Human)) and state it.
Out: 3.21

In: Same question for Cc1c(-c2cc3ccc(C(C)(O)C(F)(F)F)nc3n2CC2CC2)nn2cc(C(=O)N3CCC[C@@H](N)C3)ccc12 (mixture of isomers) please.
Out: 2.18

In: Same question for Cc1c(-c2cc3ccc(-c4ccc5c(c4)CNC5=O)nc3n2CC2CC2)nn2cc(C(=O)N3CC4CCC3[C@@H]4N)cc(F)c12 (stereo partly shown) please.
Out: 0.95

In: Same question for Cc1c(-c2cc3cccnc3n2CC2CC2)nn2cc(C(=O)N3CC4CCC3[C@@H]4N)ccc12 (stereo partly shown) please.
Out: 2.36

In: Same question for Cc1c(-c2cc3ccc(-c4ccc(C(N)=O)cc4C(F)(F)F)cc3n2CC2CC2)nn2cc(C(=O)N3CC4CCC3[C@@H]4N)ccc12 (stereo partly shown) please.
Out: 1.78

In: Same question for COc1cc(C(=O)N2CC3CCC2[C@@H]3N)cc2oc(-c3cc4ccc(C(C)(C)O)nc4n3CC3CC3)c(C)c12 (stereo partly shown) please.
Out: 1.08

Others:
In: Recall the recorded log10 IC50 for `Cc1c(-c2cc3cccc(C4CCN(C(=O)CC(C)C)CC4)c3n2CC2CC2)nn2cc(C(=O)N3CCC[C@@H](N)C3)ccc12` with human PAD4 (hPAD4) (Homo sapiens (Human)) and state it.
Out: 2.11

In: Same question for `Cc1c(-c2cc3ccnc(OCCn4ccnc4)c3n2CC2CC2)nn2cc(C(=O)N3CCC[C@@H](N)C3)ccc12` please.
Out: 1.00

In: Same question for COc1cc(C(=O)N2C[C@H](N)C[C@@H](F)C2)cn2nc(-c3cc4ccc(C(C)(O)C(F)(F)F)cc4n3CC3CC3)c(C)c12 (stereo partly shown) please.
Out: 2.49

In: Same question for `CC(=O)N1CCC(c2cccc3cc(-c4nn5cc(C(=O)N6C[C@H](N)C[C@@H](F)C6)cc(F)c5c4C)n(CC4CC4)c23)CC1` please.
Out: 1.30

In: Same question for `COc1cc(C(=O)N2CCC[C@@H](N)C2)cn2nc(-c3cc4cccc(C5CN(C(=O)[C@H]6CC[C@H](O)CC6)C5)c4n3CC3CC3)c(C)c12` please.
Out: 1.78

In: Same question for `COc1nc(C(=O)N2CC3(CNC3)C2)cn2nc(-c3cc4cccnc4n3CC3CC3)c(C)c12` please.
Out: 4.36

In: Same question for Cc1c(-c2cc3ccc(-c4ccc5c(c4)C(=O)NC5)nc3n2CC2CC2)nn2cc(C(=O)N3CC4CCC3[C@@H]4N)cc(F)c12 (stereo partly shown) please.
Out: 1.61
